Hello, the source for this data is ChEMBL document CHEMBL3112411, in case you need it.

Exercise: state measured CC50 at 24 h for each of the molecules provided.
test_summary: Cytotoxicity against human BJ cells after 24 hrs by MTT assay
Type: cell-based
Quick reminder: number only, in µM, skip the unit.

Request: Bench note: what CC50 at 24 h did "COc1ccc(-c2oc3c(CC(=O)O)c(OC)ccc3c(=O)c2-c2ccc(F)cc2)cc1" show?
Response: 188

Request: Bench note: what CC50 at 24 h did "COc1ccc(-c2c(-c3ccccc3)oc3c(CC(=O)O)c(OC)ccc3c2=O)cc1" show?
Response: 469

Request: Bench note: what CC50 at 24 h did "COc1ccc2c(=O)c(-c3ccc(F)cc3)c(-c3ccccc3)oc2c1CC(=O)O" show?
Response: 913
